Target: extracellular domain of human BLyS protein (hBLyS-ECD), His-tagged, Ala134-Leu285 (human, UniProt Q9Y275 134-285)
Sequence (Q9Y275 134-285): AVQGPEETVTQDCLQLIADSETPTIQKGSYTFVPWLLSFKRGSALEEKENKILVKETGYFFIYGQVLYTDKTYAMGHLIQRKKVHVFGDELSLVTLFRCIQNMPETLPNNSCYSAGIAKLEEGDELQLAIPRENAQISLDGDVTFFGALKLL
Assay: cell-based or functional assay
Some binders, each annotated with its measured OD450 nm (as headed), mouse B lymphocyte proliferation; antibody 0.0064 nM.
// return a plain number; no unit text

Example entries and their recorded answers appear below.
Exercise: Consider the binder c97A3C2H4 (antibody, V domains shown, also called chimeric antibody c97A3C2H4) VH: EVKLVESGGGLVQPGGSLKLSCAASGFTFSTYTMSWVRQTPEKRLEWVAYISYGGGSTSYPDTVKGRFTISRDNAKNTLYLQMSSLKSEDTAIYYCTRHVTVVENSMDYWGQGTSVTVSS VL: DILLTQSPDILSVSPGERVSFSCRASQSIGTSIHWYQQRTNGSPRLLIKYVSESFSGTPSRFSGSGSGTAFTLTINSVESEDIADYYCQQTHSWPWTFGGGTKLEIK and give its measured OD450 nm (as headed), mouse B lymphocyte proliferation; antibody 0.0064 nM.
Solution: 5280

Exercise: Request: c8E7D9C7F5 (antibody, V domains shown, also called chimeric antibody c8E7D9C7F5) VH: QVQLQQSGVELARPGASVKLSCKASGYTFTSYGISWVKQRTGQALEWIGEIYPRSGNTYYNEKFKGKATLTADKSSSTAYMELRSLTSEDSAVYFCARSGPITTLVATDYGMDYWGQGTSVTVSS VL: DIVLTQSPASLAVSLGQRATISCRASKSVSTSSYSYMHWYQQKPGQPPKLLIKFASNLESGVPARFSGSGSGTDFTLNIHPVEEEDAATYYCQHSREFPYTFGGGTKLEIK
Solution: 5280

Exercise: Request: c67A2E1D10 (antibody, V domains shown) VH: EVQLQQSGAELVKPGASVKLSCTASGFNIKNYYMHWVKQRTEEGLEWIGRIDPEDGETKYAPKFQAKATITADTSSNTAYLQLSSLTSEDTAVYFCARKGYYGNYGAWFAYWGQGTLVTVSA VL: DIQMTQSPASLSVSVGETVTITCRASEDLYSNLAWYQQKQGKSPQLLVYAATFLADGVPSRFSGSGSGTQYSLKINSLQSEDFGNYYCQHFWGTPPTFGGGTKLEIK
Solution: 5170

We now examine a further binder.
Exercise: Consider the binder c93C6F10D3 (antibody, V domains shown) VH: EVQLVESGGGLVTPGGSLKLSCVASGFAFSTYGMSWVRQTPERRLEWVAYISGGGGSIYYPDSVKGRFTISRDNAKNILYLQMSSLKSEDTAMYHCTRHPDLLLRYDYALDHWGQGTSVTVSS VL: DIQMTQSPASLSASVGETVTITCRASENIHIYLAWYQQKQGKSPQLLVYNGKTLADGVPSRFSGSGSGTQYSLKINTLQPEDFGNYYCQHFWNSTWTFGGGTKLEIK and give its measured OD450 nm (as headed), mouse B lymphocyte proliferation; antibody 0.0064 nM.
Solution: 4920
